# TARGET_DESC: BaF3 TELJAK2 cells (BafT_J2) (Homo sapiens, UniProt O60674)
# Construct: fused on or other part: TEL (ETV6) N-terminal part, coding nucleotides 1-487, serves as the oligomerising partner; It is fused through a Sal I site to the JAK2 kinase domain and expressed from pTRE2 in BaF3 cells bearing pTET-off; P41212 (Transcription factor ETV6)
# Sequence (O60674 whole entry, change not shown, the tested form may be a part): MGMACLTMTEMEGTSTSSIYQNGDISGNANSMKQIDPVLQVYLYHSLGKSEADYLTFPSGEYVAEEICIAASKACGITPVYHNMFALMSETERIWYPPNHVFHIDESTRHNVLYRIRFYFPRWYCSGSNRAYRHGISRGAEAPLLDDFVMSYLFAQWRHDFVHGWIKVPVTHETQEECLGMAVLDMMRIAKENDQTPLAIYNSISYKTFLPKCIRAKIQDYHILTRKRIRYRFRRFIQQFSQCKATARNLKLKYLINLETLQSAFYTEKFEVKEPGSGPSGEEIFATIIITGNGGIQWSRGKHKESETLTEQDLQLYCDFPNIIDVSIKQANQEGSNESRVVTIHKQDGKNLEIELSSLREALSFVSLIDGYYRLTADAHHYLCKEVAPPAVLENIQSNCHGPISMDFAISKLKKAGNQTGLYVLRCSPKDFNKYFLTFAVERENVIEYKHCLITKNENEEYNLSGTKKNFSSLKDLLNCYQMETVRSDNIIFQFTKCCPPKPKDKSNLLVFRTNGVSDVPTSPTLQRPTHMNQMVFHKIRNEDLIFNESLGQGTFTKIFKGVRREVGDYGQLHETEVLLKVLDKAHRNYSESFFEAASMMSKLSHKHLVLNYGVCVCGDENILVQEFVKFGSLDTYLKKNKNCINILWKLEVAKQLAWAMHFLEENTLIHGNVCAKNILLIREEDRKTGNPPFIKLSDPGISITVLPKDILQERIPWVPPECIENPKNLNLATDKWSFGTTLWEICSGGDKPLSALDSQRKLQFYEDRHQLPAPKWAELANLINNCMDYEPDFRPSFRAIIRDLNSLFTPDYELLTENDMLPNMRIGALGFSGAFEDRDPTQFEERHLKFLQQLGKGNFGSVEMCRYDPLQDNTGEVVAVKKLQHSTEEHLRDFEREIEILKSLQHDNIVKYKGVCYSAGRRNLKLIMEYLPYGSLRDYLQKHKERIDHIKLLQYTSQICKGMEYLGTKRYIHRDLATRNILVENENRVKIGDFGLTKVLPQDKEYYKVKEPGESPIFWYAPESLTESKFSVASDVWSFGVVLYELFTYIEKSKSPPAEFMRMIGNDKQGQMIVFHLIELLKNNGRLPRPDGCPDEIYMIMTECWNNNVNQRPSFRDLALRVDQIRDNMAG
# METHOD_DESCRIPTION: Cellular screening, BaF3 TEL:JAK2 cells, Alamar Blue
# Type: cell-based
# CONDITIONS_USED: 40 hr, read-out: BafT_J2 IC50_nM
ENDPOINT: GI50

Recorded GI50, per entry:
c1cc(Sc2ccc(Cn3cncn3)cc2)nc(Nc2ccc(N3CCOCC3)cc2)n1: < 5 µM
C=CC(=O)Nc1ccc(Sc2ccnc(Nc3cccc(CO)c3)n2)cc1: < 5 µM
C=CC(=O)Nc1ccc(Sc2ccnc(Nc3ccc(N4CCN(C)CC4)cc3)n2)cc1: < 5 µM
CCOC(=O)/C=C\C(=O)Nc1ccc(Sc2nc(Nc3ccc(N4CCOCC4)cc3)ncc2C)cc1: < 5 µM
Cc1cnc(Nc2ccc(N3CCOCC3)cc2)nc1Sc1ccc(CC#N)cc1: > 20 µM

Give GI50 for the following compound: `C=CC(=O)Nc1cccc(Nc2nccc(Sc3ccc(OC)cc3)n2)c1`
< 20 µM

Give GI50 for the following compound: `C=CC(=O)Nc1cc(C)c(Sc2nc(Nc3ccc(N4CCOCC4)cc3)ncc2C)c(C)c1`
< 20 µM

Give GI50 for the following compound: `C=CC(=O)Nc1ccc(Sc2ccnc(Nc3cccc(OC)c3)n2)cc1`
< 20 µM

Give GI50 for the following compound: `Cc1cnc(Nc2ccc(N3CCOCC3)cc2)nc1Sc1ccc(NC(=O)/C=C/C(=O)O)cc1`
> 20 µM

Give GI50 for the following compound: `OCc1cccc(Sc2ccnc(Nc3ccc(N4CCOCC4)cc3)n2)c1`
< 20 µM

Give GI50 for the following compound: `C=CC(=O)N(C)c1ccc(Sc2nc(Nc3ccc(N4CCOCC4)cc3)ncc2C)cc1`
< 20 µM

Give GI50 for the following compound: `C=CC(=O)Nc1ccc(Sc2nc(Nc3ccccc3O)ncc2C)cc1`
> 20 µM

Give GI50 for the following compound: `C=CC(=O)Nc1ccc(Sc2nc(Nc3ccc(N4CCOCC4)cc3)ncc2-c2ccccc2)cc1`
> 20 µM

Give GI50 for the following compound: `Cc1cnc(Nc2ccc(N3CCOCC3)cc2)nc1Sc1ccc(NC(=O)/C=C/Cl)cc1`
< 20 µM
